# credit: ChEMBL document CHEMBL1201861

Test system: NCI-H1993;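 further: growth inhibition of the cancer cell line, assessed with a cell viability assay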
assay_protocol: cells
Assay type: functional, cell-based
test_conditions: Homo sapiens
Description: SANGER: Inhibition of human NCI-H1993 cell growth in a cell viability assay.
pIC50: −log10 of the molar value.
recorded_endpoint: pIC50

The molecule listed as O=C(NCCCNc1nc(Nc2cccc(NC(=O)N3CCCC3)c2)ncc1I)c1cccs1 [BX-795] has a reported pIC50 of < 5.30

Form field pIC50, entry Cc1ccc(-n2nc(C(C)(C)C)cc2NC(=O)Nc2ccc(OCCN3CCOCC3)c3ccccc23)cc1 [DORAMAPIMOD] : < 5.00

Record summary for `COc1ccc(-c2cc3nccn3c(Nc3ncccc3C(N)=O)n2)cc1OC` : reported pIC50 = < 5.10

Measured pIC50, `O=S(=O)(O)c1ccc2cc(/N=N/c3cc(S(=O)(=O)O)c4cccnc4c3O)ccc2c1` : < 4.80

Briefly, pIC50 measured for NC1(c2ccc(-c3nc4ccn5c(=O)[nH]nc5c4cc3-c3ccccc3)cc2)CCC1 [MK-2206] : < 5.40

Briefly, pIC50 measured for CC1(C)CCC(c2ccc(Cl)cc2)=C(CN2CCN(c3ccc(C(=O)NS(=O)(=O)c4ccc(N[C@H](CCN5CCOCC5)CSc5ccccc5)c(S(=O)(=O)C(F)(F)F)c4)cc3)CC2)C1 [NAVITOCLAX] : < 5.70

---

For each of the compounds below, state its IC50.
Test system: RERF-LC-MS;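 further: growth inhibition of human RERF-LC-MS cells, read out by a cell viability assay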
assay_protocol: cells
Type: functional, cell-based
test_conditions: Homo sapiens
Description: SANGER: Inhibition of human RERF-LC-MS cell growth in a cell viability assay.

Consider `Cc1ccc(-n2nc(C(C)(C)C)cc2NC(=O)Nc2ccc(OCCN3CCOCC3)c3ccccc23)cc1` . Its measured IC50 is > 10 µM

So, `O=S(=O)(O)c1ccc2cc(/N=N/c3cc(S(=O)(=O)O)c4cccnc4c3O)ccc2c1` ? Its IC50 was > 16 µM

Value of IC50 reported for the compound `CS(=O)(=O)N1CCN(Cc2cc3nc(-c4cccc5[nH]ncc45)nc(N4CCOCC4)c3s2)CC1` is > 4 µM

IC50 recorded for this compound, `O=C(NCCCNc1nc(Nc2cccc(NC(=O)N3CCCC3)c2)ncc1I)c1cccs1` , is > 5 µM

Entry `COc1ccc(-c2cc3nccn3c(Nc3ncccc3C(N)=O)n2)cc1OC` — recorded IC50 = > 8 µM

---

Consider the following molecules; for each one, report its pIC50.
Tested on: BC1 cell line
assay_protocol: SANGER: Inhibition of human BC-1 cell growth in a cell viability assay.
Format: functional, cell-based
test_conditions: Homo sapiens, BC1
pIC50: −log10 of the molar value.

Bench note, BC1 cell line: entry `Cc1ccc(NC(=O)c2ccc(CN3CCN(C)CC3)cc2)cc1Nc1nccc(-c2cccnc2)n1` , its pIC50 = < 5.70

Readout pIC50 for `COc1ccc(N(C(=O)Oc2c(C)cccc2C)c2ccnc(Nc3ccc(N4CCN(C)CC4)cc3)n2)c(OC)c1` , test system BC1 cell line, was < 5.29

Here `CCCCCCCCCCCC1=C(O)C(=O)C=C(O)C1=O` was tested on BC1 cell line, and its pIC50 came to 5.30

Reading of pIC50 for `CO[C@@H]1[C@H](N(C)C(=O)c2ccccc2)C[C@H]2O[C@]1(C)n1c3ccccc3c3c4c(c5c6ccccc6n2c5c31)C(=O)NC4` with BC1 cell line: < 6.29

// molecule C=CC(=O)N1CCCC(Nc2nc(Nc3ccc(N(C)C(=O)CC)cc3)nc3[nH]cnc23)C1 (configuration not stated) , assay BC1 cell line, pIC50 value: < 4.99

BC1 cell line assay, molecule `COc1cc(N2CCC(N3CCN(C)CC3)CC2)ccc1Nc1ncc(Cl)c(Nc2ccccc2S(=O)(=O)C(C)C)n1` , recorded pIC50 = < 5.70

Value (pIC50, BC1 cell line) for record `COC(=O)[C@H](CCSC)NC(=O)c1ccc(NC[C@@H](N)CS)cc1-c1ccccc1` = < 5.99

---

System: D283 Med
assay_protocol: cells
Type: functional, cell-based, Homo sapiens
test_conditions: Homo sapiens, D283 Med
Description: SANGER: Inhibition of human D-283MED cell growth in a cell viability assay.
So I've got a bunch of compounds here, and I need their IC50 values.

IC50 in this record for C[C@@H](Oc1cc(-c2cnn(C3CCNCC3)c2)cnc1N)c1c(Cl)ccc(F)c1Cl [CRIZOTINIB] : > 2 µM

Notebook: CC1(C)CCC(c2ccc(Cl)cc2)=C(CN2CCN(c3ccc(C(=O)NS(=O)(=O)c4ccc(N[C@H](CCN5CCOCC5)CSc5ccccc5)c(S(=O)(=O)C(F)(F)F)c4)cc3)CC2)C1 [NAVITOCLAX] , IC50 read as 0.177 µM

In plain terms, Cc1ccc(-n2nc(C(C)(C)C)cc2NC(=O)Nc2ccc(OCCN3CCOCC3)c3ccccc23)cc1 [DORAMAPIMOD] has a documented IC50 of > 10 µM

Reported IC50 ( NC(=O)c1ccc(N(C(N)=O)c2c(F)cccc2F)nc1-c1ccc(F)cc1F [VX-702] ) = > 2 µM

---

Test system: TE-11
assay_protocol: cells
Type: functional, cell-based
test_conditions: Homo sapiens
Description: SANGER: Inhibition of human TE-11 cell growth in a cell viability assay.
pIC50: −log10 of the molar value.
recorded_endpoint: pIC50

Just so you know, measured pIC50 for `Cc1cc(N2CCOCC2)cc2[nH]c(-c3c(NC[C@@H](O)c4cccc(Cl)c4)cc[nH]c3=O)nc12` came out at 6.82

Lab note: measured pIC50 of `NC1(c2ccc(-c3nc4ccn5c(=O)[nH]nc5c4cc3-c3ccccc3)cc2)CCC1` was < 5.40

# pIC50 (compound: `Cc1ccc(-n2nc(C(C)(C)C)cc2NC(=O)Nc2ccc(OCCN3CCOCC3)c3ccccc23)cc1` ) is < 5.00

Noted for C=CC(=O)N1CCCC(Nc2nc(Nc3ccc(N(C)C(=O)CC)cc3)nc3[nH]cnc23)C1 (stereo not drawn) : its pIC50 reads < 4.99

Summary for this compound, `Cc1ccc(NC(=O)c2ccc(CN3CCN(C)CC3)cc2)cc1Nc1nccc(-c2cccnc2)n1` : pIC50 is < 5.70

For record `NC(=O)Nc1cc(-c2cccc(F)c2)sc1C(=O)N[C@H]1CCCNC1` the listed pIC50 is 6.34

# pIC50 of `O=C1NC(=O)c2c1c(-c1ccccc1Cl)cc1[nH]c3ccc(O)cc3c21` = < 5.70

Reported pIC50 ( `CC1=C(/C=C/C(C)=C/C=C/C(C)=C/C(=O)O)C(C)(C)CCC1` ) = < 5.00

---

Tested on: ACN;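 further: growth inhibition of the human ACN cell line, read out via cell viability testing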
assay_protocol: cells
Type: functional, cell-based, Homo sapiens
test_conditions: Homo sapiens, ACN
Description: SANGER: Inhibition of human ACN cell growth in a cell viability assay.
recorded_endpoint: IC50

For the compound `O=C(NCCCNc1nc(Nc2cccc(NC(=O)N3CCCC3)c2)ncc1I)c1cccs1` , the measured IC50 on ACN was > 5000 nM

# IC50 measured on ACN for item `Nc1ccccc1NC(=O)c1ccc(CNC(=O)OCc2cccnc2)cc1` = 510 nM

IC50 for ACN with input `NC(=O)c1ccc(N(C(N)=O)c2c(F)cccc2F)nc1-c1ccc(F)cc1F` equals > 2000 nM

Item `NC(=O)c1cccc(-c2cc(Nc3ccc(OC(F)(F)F)cc3)ncn2)c1` was tested on ACN; the reported IC50 is > 1280 nM

Field IC50 (ACN), entry `CC(C)C[C@H](NC(=O)[C@H](Cc1ccccc1)NC(=O)c1cnccn1)B(O)O` : 0.417 nM

IC50 value, target or system ACN, for `CS(=O)(=O)N1CCN(Cc2cc3nc(-c4cccc5[nH]ncc45)nc(N4CCOCC4)c3s2)CC1` : > 4000 nM

Tested system ACN; IC50 recorded for `CC1(C)CCC(c2ccc(Cl)cc2)=C(CN2CCN(c3ccc(C(=O)NS(=O)(=O)c4ccc(N[C@H](CCN5CCOCC5)CSc5ccccc5)c(S(=O)(=O)C(F)(F)F)c4)cc3)CC2)C1` was > 2000 nM

The compound `CN(C)CCOc1ccc(-c2nc(-c3ccncc3)c(-c3ccc4c(c3)CC/C4=N\O)[nH]2)cc1` on ACN: IC50 was 1150 nM

---

Test system: ESS-1
assay_protocol: cells
Type: functional, cell-based
test_conditions: Homo sapiens
Description: SANGER: Inhibition of human ESS-1 cell growth in a cell viability assay.
recorded_endpoint: IC50 (µM)
// units = µM; emit number, no label

Short answer for `NC(=O)Nc1cc(-c2cccc(F)c2)sc1C(=O)N[C@H]1CCCNC1` : IC50 was 0.164

Please fill in: IC50 reported for `CCCCCCCCCCCC1=C(O)C(=O)C=C(O)C1=O` = 9.42

---

Task for the reader: assign each of the following compounds its reported pIC50.
System: EKVX;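 further: growth inhibition of human EKVX cells, read out with a cell viability assay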
assay_protocol: cells
Type: functional, cell-based, Homo sapiens
test_conditions: Homo sapiens, EKVX
Description: SANGER: Inhibition of human EKVX cell growth in a cell viability assay.
pIC50: −log10 of the molar value.

Field pIC50 (entry `Nc1ccccc1NC(=O)c1ccc(CNC(=O)OCc2cccnc2)cc1` ) reads < 5.30

Field pIC50 (entry `COC(=O)[C@H](CCSC)NC(=O)c1ccc(NC[C@@H](N)CS)cc1-c1ccccc1` ) reads < 5.99

pIC50 recorded for this compound, `CN(C)CCOc1ccc(-c2nc(-c3ccncc3)c(-c3ccc4c(c3)CC/C4=N\O)[nH]2)cc1` , is < 5.30

Looking up `CS(=O)(=O)N1CCN(Cc2cc3nc(-c4cccc5[nH]ncc45)nc(N4CCOCC4)c3s2)CC1` , I found its pIC50 recorded as 5.99
